FYI, the data here is from patent US20210147381A1.

Molecular target: human S1P5 receptor (S1PR5) (Homo sapiens)
Construct: host or cells: CHO-K1
Test: Intracellular Ca2+ release (method 1), agonist potency and efficacy, S1P5
Assay type: cell-based
Conditions: text value for reference compounds lacking the spiro-linked group; read-out: S1P5 EC50
pEC50: −log10 of the molar value.
Measured attribute: pEC50

O=C(O)CCN1CCc2cc(C#Cc3c(Cl)cccc3Cl)ccc2C1 [Reference compound 2, reference compound]; 7.72
O=C(O)CCN1CCc2cc(C#Cc3cccc(F)c3F)ccc2C1 [Reference compound 1, reference compound]; 7.54

---

Molecular target: human S1P1 receptor (S1PR1) (Homo sapiens)
Construct: host or cells: CHO-K1
Sequence (P21453 whole entry): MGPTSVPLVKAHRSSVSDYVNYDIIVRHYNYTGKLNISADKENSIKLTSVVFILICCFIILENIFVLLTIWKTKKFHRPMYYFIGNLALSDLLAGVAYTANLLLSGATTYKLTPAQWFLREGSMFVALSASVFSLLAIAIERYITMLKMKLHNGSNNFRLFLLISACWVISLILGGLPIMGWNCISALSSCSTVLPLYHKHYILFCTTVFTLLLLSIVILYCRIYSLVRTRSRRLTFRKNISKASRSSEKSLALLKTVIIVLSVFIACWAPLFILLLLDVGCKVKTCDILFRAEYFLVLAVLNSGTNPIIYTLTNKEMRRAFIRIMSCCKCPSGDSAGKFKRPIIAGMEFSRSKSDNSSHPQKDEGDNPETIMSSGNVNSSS
Assay: Intracellular Ca2+ release (method 1), agonist potency, S1P1
Format: cell-based
Conditions: CHO-K1 cells expressing human S1PR1; cells given as bound
Protocol: Agonistic activity and efficacy of compounds was assessed in recombinant cells using method 1 described below. Agonist potency and efficacy were assessed by measurement of intracellular Ca^2+ release. […]
Measured attribute: EC50

Below: 5 compounds and their reported EC50.
O=C(O)CCN1Cc2ccc(C#Cc3ccc(F)cc3)cc2C2(CC2)C1 [Compound 41]; > 1000 nM
CCOc1ccc(C#Cc2ccc3c(c2)C2(CC2)CN(C2CC(C(=O)O)C2)C3)nc1 (centres unmarked) [Compound 73]; > 1000 nM
O=C(O)C1CC(N2Cc3ccc(C#Cc4ccc(OC(F)(F)F)c(F)c4)cc3C3(CC3)C2)C1 (centres unmarked) [Compound 71]; > 1000 nM
O=C(O)CCCN1Cc2ccc(OCc3ccccc3OC(F)(F)F)cc2C2(CC2)C1 [Compound 14]; > 1000 nM
O=C(O)CCCN1Cc2ccc(OCc3cccc(OC(F)(F)F)c3)cc2C2(CC2)C1 [Compound 20]; > 1000 nM

Form field EC50, entry O=C(O)CCCN1Cc2ccc(OCc3ccc(Cl)c(Cl)c3)cc2C2(CC2)C1 [Compound 26] : > 1000 nM

Form field EC50, entry CC(CC(=O)O)CN1Cc2ccc(C#Cc3c(F)cccc3F)cc2C2(CC2)C1 (centres unmarked) [Compound 58] : > 1000 nM

Form field EC50, entry O=C(O)CCN1Cc2ccc(C#Cc3c(F)cccc3F)cc2C2(CC2)C1 [Compound 36] : > 1000 nM

Form field EC50, entry O=C(O)CCCN1Cc2ccc(C#Cc3ccc(OC(F)(F)F)c(F)c3)cc2C2(CC2)C1 [Compound 47] : > 1000 nM

Form field EC50, entry O=C(O)CCCN1Cc2ccc(C#Cc3ccc4c(c3)OCO4)cc2C2(CC2)C1 [Compound 56] : > 1000 nM

Form field EC50, entry CC(CC(=O)O)CN1Cc2ccc(C#Cc3ccc(C(C)C)cc3)cc2C2(CC2)C1 (centres unmarked) [Compound 60] : > 1000 nM

Form field EC50, entry Cc1cccnc1C#Cc1ccc2c(c1)C1(CC1)CN(CCC(=O)O)C2 [Compound 43] : > 1000 nM

Form field EC50, entry COc1ncc(C#Cc2ccc3c(c2)C2(CC2)CN(CCCC(=O)O)C3)cc1F [Compound 55] : > 1000 nM

Form field EC50, entry CCCn1cc(C#Cc2ccc3c(c2)C2(CC2)CN(CCC(=O)O)C3)cn1 [Compound 42] : > 1000 nM

---

Listed next: entries and their corresponding EC50.
Molecular target: human S1P4 receptor (S1PR4) (Homo sapiens, UniProt O95977)
Construct: host or cells: CHO-K1
Sequence (O95977 1-384): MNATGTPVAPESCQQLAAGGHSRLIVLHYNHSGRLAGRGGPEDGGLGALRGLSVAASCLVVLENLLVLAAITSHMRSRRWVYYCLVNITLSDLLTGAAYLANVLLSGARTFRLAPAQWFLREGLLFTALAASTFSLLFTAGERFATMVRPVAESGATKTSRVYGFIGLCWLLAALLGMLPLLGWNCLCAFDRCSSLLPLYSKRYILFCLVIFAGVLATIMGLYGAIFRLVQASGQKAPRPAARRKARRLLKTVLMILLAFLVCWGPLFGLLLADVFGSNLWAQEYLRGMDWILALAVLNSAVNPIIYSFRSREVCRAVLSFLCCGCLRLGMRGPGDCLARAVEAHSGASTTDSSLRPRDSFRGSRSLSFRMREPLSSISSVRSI
Assay: Intracellular Ca2+ release (method 1), agonist potency, S1P4
Assay type: cell-based
Details: CHO-K1 cells expressing human S1PR4

Form field EC50, entry O=C(O)CCCN1Cc2ccc(OCc3ccc(F)c(F)c3)cc2C2(CC2)C1 : 100 to 1000 nM

Form field EC50, entry O=C(O)CCN1Cc2ccc(C#Cc3cccc(F)c3F)cc2C2(CC2)C1 : 10 to 100 nM

Form field EC50, entry CCc1cccc(Cl)c1COc1ccc2c(c1)C1(CC1)CN(C(C)C(=O)O)C2 (stereo not drawn) : 100 to 1000 nM

Form field EC50, entry O=C(O)CCN1Cc2ccc(C#Cc3cccc(Cl)n3)cc2C2(CC2)C1 : 100 to 1000 nM

Form field EC50, entry CCc1cccc(Cl)c1COc1ccc2c(c1)C1(CC1)CN(CC(=O)O)C2 : 100 to 1000 nM

Form field EC50, entry O=C(O)CCCN1Cc2ccc(OCc3ccc(Cl)cc3)cc2C2(CC2)C1 : 100 to 1000 nM

Form field EC50, entry Cc1ccccc1C#Cc1ccc2c(c1)C1(CC1)CN(CCC(=O)O)C2 : 100 to 1000 nM

Form field EC50, entry CCc1cccc(Cl)c1COc1ccc2c(c1)C1(CC1)CN(CCCC(=O)O)C2 : < 10 nM

Form field EC50, entry O=C(O)CCCN1Cc2ccc(OCc3c(Cl)cccc3Cl)cc2C2(CC2)C1 : 10 to 100 nM

Form field EC50, entry Cc1ccccc1COc1ccc2c(c1)C1(CC1)CN(CCCC(=O)O)C2 : 100 to 1000 nM

Form field EC50, entry O=C(O)CCN1Cc2ccc(C#Cc3c(Cl)cccc3Cl)cc2C2(CC2)C1 : 10 to 100 nM

Form field EC50, entry O=C(O)CCN1Cc2ccc(C#Cc3ccccc3Cl)cc2C2(CC2)C1 : 100 to 1000 nM

---

Target: human S1P5 receptor (S1PR5) (Homo sapiens, UniProt Q9H228)
Construct: host or cells: CHO-K1
Sequence (Q9H228 whole entry): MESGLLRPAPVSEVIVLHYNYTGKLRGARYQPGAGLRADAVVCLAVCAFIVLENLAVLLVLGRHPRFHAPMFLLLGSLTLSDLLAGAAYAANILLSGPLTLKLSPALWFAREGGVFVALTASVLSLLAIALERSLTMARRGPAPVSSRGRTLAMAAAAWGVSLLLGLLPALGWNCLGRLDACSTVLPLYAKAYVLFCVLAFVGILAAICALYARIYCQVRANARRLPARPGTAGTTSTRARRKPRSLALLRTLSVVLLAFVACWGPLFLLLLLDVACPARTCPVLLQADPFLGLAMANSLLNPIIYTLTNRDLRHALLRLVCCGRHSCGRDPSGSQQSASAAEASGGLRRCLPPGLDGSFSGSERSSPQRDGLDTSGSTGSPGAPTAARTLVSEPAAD
Assay: Intracellular Ca2+ release (method 1), agonist potency and efficacy, S1P5
Format: cell-based
Details: recombinant CHO-K1 cells expressing human S1PR5, aequorin, Gq/i5; Ca2+ release; read-out: S1P5 EC50 range
Description: Agonistic activity and efficacy of compounds was assessed in recombinant cells using method 1 described below. Agonist potency and efficacy were assessed by measurement of intracellular Ca^2+ release. […]
pEC50: −log10 of the molar value.
Measured attribute: pEC50

Below: 2 compounds and their reported pEC50.
O=C(O)CCN1Cc2ccc(C#Cc3cc(F)cc(F)c3)cc2C2(CC2)C1 [Compound 32]; > 8.00
O=C(O)CCCN1Cc2ccc(C#Cc3ccc(OC4CCCC4)cc3)cc2C2(CC2)C1 [Compound 44]; > 8.00

Form field pEC50, entry O=C(O)CCN1Cc2ccc(C#Cc3ccccc3Cl)cc2C2(CC2)C1 [Compound 35] : > 8.00

---

Listed next: entries and their corresponding Emax.
Biological target: human S1P5 receptor (S1PR5) (Homo sapiens)
Construct: host or cells: CHO-K1
Test: Intracellular Ca2+ release (method 1), agonist potency and efficacy, S1P5
Format: cell-based
Conditions: maximum effect in % of reference agonist phospho-fingolimod (100%); read-out: hS1P5 EMax

Below: 3 compounds and their reported Emax.
CCCn1cc(C#Cc2ccc3c(c2)C2(CC2)CN(CCC(=O)O)C3)cn1; 50 to 100%
CC(C)Oc1ccc(C#Cc2ccc3c(c2)C2(CC2)CN(CCCC(=O)O)C3)nc1; > 100%
O=C(O)C1(CN2Cc3ccc(C#Cc4ccc(OC5CCCC5)nc4)cc3C3(CC3)C2)CC1; > 100%

Param item: O=C(O)CCN1Cc2ccc(C#Cc3ccc(F)cc3)cc2C2(CC2)C1 ; param system: human S1P5 receptor (S1PR5) (Homo sapiens); output Emax: < 50%

Param item: O=C(O)CCCN1Cc2ccc(C#Cc3ccc(OC4CCCC4)cc3)cc2C2(CC2)C1 ; param system: human S1P5 receptor (S1PR5) (Homo sapiens); output Emax: > 100%

Param item: O=C(O)C1CC(N2Cc3ccc(C#Cc4ccc(OC(F)(F)F)c(F)c4)cc3C3(CC3)C2)C1 (centres unmarked) ; param system: human S1P5 receptor (S1PR5) (Homo sapiens); output Emax: 50 to 100%

Param item: CCOc1ccc(C#Cc2ccc3c(c2)C2(CC2)CN(CCCC(=O)O)C3)nc1 ; param system: human S1P5 receptor (S1PR5) (Homo sapiens); output Emax: 50 to 100%

---

Biological target: human S1P5 receptor (S1PR5) (Homo sapiens)
Construct: host or cells: CHO-K1
Experiment: Intracellular Ca2+ release (method 1), agonist potency and efficacy, S1P5
Format: cell-based
Conditions: recombinant CHO-K1 cells expressing human S1PR5, aequorin, Gq/i5; Ca2+ release; read-out: S1P5 EC50 range
Procedure: Agonistic activity and efficacy of compounds was assessed in recombinant cells using method 1 described below. Agonist potency and efficacy were assessed by measurement of intracellular Ca^2+ release. […]
Listed next: entries and their corresponding EC50.

Below: 2 molecules and their reported EC50.
CC(C)Oc1ccc(C#Cc2ccc3c(c2)C2(CC2)CN(CCCC(=O)O)C3)cc1 [Compound 46]; < 10 nM
O=C(O)CCN1Cc2ccc(C#Cc3c(F)cccc3F)cc2C2(CC2)C1 [Compound 36]; < 10 nM

Form field EC50, entry CCCn1cc(C#Cc2ccc3c(c2)C2(CC2)CN(CCC(=O)O)C3)cn1 [Compound 42] : 1000 to 10000 nM
